System: CAKI-1 renal
Procedure Text: NCI tumour cell line growth inhibition, 48 h

{"columns": ["Molecule", "TGI"],
 "data": [
  ["CCOC(=O)NC(Nc1ccc(C(=O)O)cc1)(C(F)(F)F)C(F)(F)F", "> 100 µM"],
  ["COc1cc(-c2cc(OC)c(OC)c3ccc(Br)cc23)c2cc(Br)ccc2c1OC", "> 100 µM"],
  ["O=C(O)c1cc2ccc(Cl)cc2c(O)c1C1=CCCCC1", "96.4 µM"],
  ["CC[P+](c1ccccc1)(N(C)C)N(C)C", "> 100 µM"],
  ["COc1cc(C(=O)Nc2ccc(-c3nc4ccccc4[nH]3)cc2)cc(OC)c1OC", "25.3 µM"],
  ["CCOC1OC(C)(C=C(C#N)C#N)CCC1C (stereo not drawn)", "96.2 µM"],
  ["O=[N+]([O-])/C(=C/C=C/c1ccccc1)c1ccccc1", "3.06 µM"],
  ["CC(C)(C)OC(=O)N1CCC2(CC1)C(=O)NCN2c1ccccc1", "> 100 µM"],
  ["CC(C)(C)OC(=O)CC(S(=O)(=O)c1ccccc1)S(=O)(=O)c1ccccc1", "3.52 µM"],
  ["COc1cc(OC)c(OC)cc1/C=C\\c1ccnc2ccccc12", "> 79.5 µM"],
  ["O=C(CC/C(CC(=O)c1ccc(Cl)cc1)=N\\O)Nc1cccc(Cl)c1", "> 100 µM"],
  ["COc1ccccc1-c1cc(=O)c2cccnc2[nH]1", "> 100 µM"],
  ["Clc1cc(Cl)cc(Nc2ccc3c(OCCCN4CCOCC4)cccc3n2)c1", "22.9 µM"],
  ["CC(=O)OCCc1cc2ccccc2oc1=O", "> 100 µM"],
  ["Nc1ncnc2c1ncn2C1C(O)C=C(CO)C1O (stereo not drawn)", "> 625 µM"],
  ["O=C(c1ccccc1)C1C(c2ccccc2[N+](=O)[O-])N1C1CCCCC1 (stereo not drawn)", "9.5 µM"],
  ["COc1ccc(S(=O)(=O)NNS(C)(=O)=O)cc1OC", "> 100 µM"],
  ["Cc1cc(S(=O)(=O)NC2=NCc3c(F)cccc3N2)c(S)cc1Cl", "> 100 µM"],
  ["Nc1cccc(C(=O)/C=C/c2ccccc2O)c1", "> 100 µM"],
  ["COc1ccc(/C(C#N)=C2/O/C(=N/N)C(c3ccc(OC)c(OC)c3)C2=O)cc1OC (stereo not drawn)", "> 100 µM"],
  ["CCOc1ccccc1NC(=O)C1=C(C)NC(C)=C(C(=O)Nc2ccccc2OCC)C1c1ccc2c(c1)OCO2", "> 100 µM"],
  ["CCOC(=O)CCC(C(=O)OCC)n1nnc2cc(Nc3c(C)[n+]([O-])c4cc(Cl)ccc4[n+]3[O-])ccc21 (stereo not drawn)", "> 100 µM"],
  ["Cc1cc(C)n(C(C)(C(=O)Cc2ccccc2)n2nc(C)cc2C)n1", "> 100 µM"],
  ["CC1CC[C@@]2(OC1)OC1C[C@H]3[C@@H]4CC=C5C[C@@H](OC6OC(CO)C(OC7OC(CO)C(O)C(O)C7O)C(O)C6OC6OC(C)C(O)C(O)C6O)CC[C@]5(C)[C@H]4CC[C@]3(C)C1[C@@H]2C (stereo partly drawn)", "2.71 µM"],
  ["O=C(Nc1ccc(-n2cc(-c3ccncc3)c(-c3ccc(Cl)c(O)c3)n2)cc1)c1ccc(Cl)c(Cl)c1", "21.3 µM"],
  ["CC1(C)O[C@@H](CCl)C[C@@H](C#N)O1", "> 100 µM"],
  ["CC1(c2ccc(Cl)cc2)c2ccccc2C(=O)N1CCCN1C(=O)c2ccccc2C1=O (stereo not drawn)", "> 100 µM"],
  ["CCCC/C=C1/CCC(CN(C)C)C1=O (stereo not drawn)", "1.78 µM"],
  ["CC1(C)N=C(N)N=C(N)N1c1ccc(CCCCCCc2ccc(S(=O)(=O)F)cc2)cc1", "44.3 µM"],
  ["Nc1ccc2c3c1cccc3c(=O)n1c3ccc(Cc4ccc5c(c4)nc4c6ccc(N)c7cccc(c(=O)n54)c76)cc3nc21", "> 100 µM"],
  ["COc1cc([N+](=O)[O-])c(S(=O)(=O)O)cc1-[n+]1nc(C(=O)Nc2ccccc2)nn1-c1ccc([N+](=O)[O-])c(S(=O)(=O)[O-])c1", "> 100 µM"],
  ["COc1cc(-c2ccc[nH]2)[nH]c1/C=C1\\N=C(C)C(C(=O)NC(C)C)=C1C", "10.9 µM"],
  ["CCOC(=O)CSc1nc(-c2ccc(Cl)cc2)c(C#N)c(=O)[nH]1", "> 100 µM"],
  ["CCOC(=O)C(=O)Nc1nc2ccc(OC)cc2s1", "> 100 µM"],
  ["Nc1ncnc2c1ncn2CCCNO", "> 100 µM"],
  ["O=C(/C=N/O)Nc1cccc(Cl)c1I", "> 100 µM"],
  ["CC(C)(C)C(=O)C(N)C(=O)C(C)(C)C", "> 100 µM"],
  ["NC(=O)N1N=C2c3ccccc3OC[C@H]2[C@@H]1c1ccccc1", "> 100 µM"],
  ["Cc1nc2sc(C(=O)Nc3cccc(Cl)c3)c(N)c2cc1C(O)c1ccccc1 (stereo not drawn)", "17 µM"],
  ["CSc1ccc2c(c1)N(CCCN(C)C)c1ccccc1S2", "21.2 µM"],
  ["CC(=O)Nc1ccc2c(c1)[nH]c(=O)c1cc(Cl)ccc12", "8.4 µM"],
  ["CC(C)OC(=O)c1cc(NC(=S)OC(C)C)ccc1Cl", "35.3 µM"],
  ["COc1cc2ccc(C(C)NCC#N)cc2cc1OC (stereo not drawn)", "> 100 µM"]
]}
